Molecular target: human PTP1B (Homo sapiens)
Construct: human PTP1B (amino acid residues 1-321); made in house; host or cells: E. coli BL21(DE3)
Sequence (P18031 1-321): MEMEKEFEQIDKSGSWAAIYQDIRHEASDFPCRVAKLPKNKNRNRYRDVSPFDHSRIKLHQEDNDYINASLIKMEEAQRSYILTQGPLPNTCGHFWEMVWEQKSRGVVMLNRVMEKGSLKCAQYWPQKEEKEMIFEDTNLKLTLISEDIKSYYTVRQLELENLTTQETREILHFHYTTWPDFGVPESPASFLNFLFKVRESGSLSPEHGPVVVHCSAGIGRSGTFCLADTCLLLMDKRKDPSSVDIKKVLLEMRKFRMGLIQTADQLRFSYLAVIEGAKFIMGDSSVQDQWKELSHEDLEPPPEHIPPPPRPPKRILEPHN
Assay: PTP1B assay, pNPP hydrolysis, assayed exactly as for PTP1
Type: biochemical
Settings: Conc 1 uM, Table 2, read-out: PTP1B Inhib PTP1B. % Inhib
Tick Fulfilled if inhibition at 1 µM is 6% or greater. Tick Not fulfilled if inhibition at 1 µM is less than 6%.

Ask | Entry CCCCCNC(=O)C(Cc1ccc(OC(COO)COO)cc1)NC(=O)C(COCc1ccccc1)NC(=O)OC(C)(C)C (stereo not shown) : is its inhibition at 1 µM no less than 6%?
Reply | Not fulfilled

Ask | Check this compound for inhibition at 1 µM at or above 6%: CCCCCNC(=O)C(Cc1ccc(OCCOO)c(COO)c1)NC(=O)C(Cc1ccccc1)NC(=O)Cc1ccc(C(F)(F)F)cc1 (stereo not shown)
Reply | Fulfilled

Ask | Threshold query (inhibition at 1 µM >= 6%) on CCCCCNC(=O)C(Cc1ccc(OCCOO)c(COO)c1)NC(=O)C(Cc1ccccc1)NC(=O)CCOC (stereo not shown)
Reply | Fulfilled

Ask | Assess whether reported inhibition at 1 µM for CCCCCNC(=O)[C@H](Cc1ccc(OCC(=O)O)c(C(=O)O)c1)NC(=O)C(Cc1ccccc1)NC(=O)CSc1cnn[nH]1 (stereo partly shown) sits at 6% or higher.
Reply | Fulfilled

Ask | Entry CCCCCNC(=O)C(Cc1ccc(OC(COO)COO)cc1)NC(=O)C(Cc1ccccc1)NC(=O)CCNC(=O)OC(C)(C)C (stereo not shown) : is its inhibition at 1 µM no less than 6%?
Reply | Fulfilled

Ask | Given the entry CCCCCNC(=O)C(Cc1ccc(OCC(=O)O)c(OCC(=O)O)c1)NC(=O)C(Cc1ccccc1)NC(=O)OC(C)(C)C (stereo not shown) , answer whether its inhibition at 1 µM meets or surpasses 6%.
Reply | Not fulfilled

Ask | Please indicate if the recorded inhibition at 1 µM for CCCCCNC(=O)C(Cc1ccc(OC(C(=O)O)C(=O)O)cc1)NC(=O)[C@H](Cc1c[nH]c2ccccc12)NC(=O)OC(C)(C)C (stereo partly shown) meets or exceeds 6%.
Reply | Fulfilled

Ask | I'd appreciate it if you could say whether CCCCCNC(=O)[C@H](Cc1ccc(OCC(=O)O)c(C(=O)O)c1)NC(=O)C(Cc1ccccc1)N1CCCC1=O (stereo partly shown) has inhibition at 1 µM at least equal to 6%.
Reply | Fulfilled

Ask | Say whether CCCCCNC(=O)C(Cc1ccc(OC(COO)COO)cc1)NC(=O)C(Cc1ccccc1)NC(=O)CCN(CC)CC (stereo not shown) shows inhibition at 1 µM of 6% or more.
Reply | Fulfilled

Ask | Threshold query (inhibition at 1 µM >= 6%) on CCCCCNC(=O)C(Cc1ccc(OC(COO)COO)cc1)NC(=O)C(Cc1ccc(O)cc1)NC(=O)OC(C)(C)C (stereo not shown)
Reply | Fulfilled

Ask | Is inhibition at 1 µM for CCCCCNC(=O)C(Cc1ccc(OC(COO)COO)cc1)NC(=O)C(CSCc1ccccc1)NC(=O)OC(C)(C)C (stereo not shown) at or above 6%?
Reply | Not fulfilled

Ask | Please tell me: is the compound CCCCCNC(=O)[C@H](Cc1ccc(OC(C(=O)O)C(=O)O)cc1)NC(=O)C(Cc1ccccc1)NC(=O)OC(C)(C)C (stereo partly shown) at or over 6% in terms of inhibition at 1 µM?
Reply | Not fulfilled

Ask | Given the entry CCCCCNC(=O)C(Cc1ccc(OC(COO)COO)cc1)NC(=O)C(CCSC)NC(=O)OC(C)(C)C (stereo not shown) , answer whether its inhibition at 1 µM meets or surpasses 6%.
Reply | Not fulfilled

Ask | Check the entry CCCCCNC(=O)C(Cc1ccc(OC(COO)COO)cc1)NC(=O)C(CC(N)=O)NC(=O)OC(C)(C)C (stereo not shown) : does inhibition at 1 µM equal or exceed 6%?
Reply | Fulfilled
